All figures here come from ChEMBL document CHEMBL3243930.

Reported Ratio values follow for various compounds
System: Columba livia
Experiment: Potency index, ratio of I50 for MTX to I50 for compound against pigeon liver dihydrofolate reductase
Reply: number alone, nothing else.

Some entries whose results are on file:
[in] Answer with the recorded Ratio of Nc1nc(N)c2nc(CNc3ccc(C(=O)N[C@@H](CCC(=O)O)C(=O)O)cc3)cnc2n1 [AMINOPTERIN] only.
[out] 1

[in] Answer with the recorded Ratio of "Nc1nc(N)c2nc(CNc3ccc(CC(=O)N[C@@H](CC(=O)O)C(=O)O)cc3)cnc2n1" only.
[out] 38

[in] Answer with the recorded Ratio of "CN(Cc1cnc2nc(N)cc(N)c2n1)c1ccc(C(=O)N[C@@H](CCC(=O)O)C(=O)O)cc1" only.
[out] 4.8

[in] Answer with the recorded Ratio of "Nc1nc(N)c2nc(CN(c3ccccc3)c3ccc(C(=O)N[C@@H](CCC(=O)O)C(=O)O)cc3)cnc2n1" only.
[out] 11

[in] Answer with the recorded Ratio of "Nc1nc(N)c2nc(CNc3ccc(C(=O)N[C@@H](CCC(=O)O)C(=O)O)nc3)cnc2n1" only.
[out] 1.2

Next item in the queue.
[in] Answer with the recorded Ratio of "CN(Cc1ccc(C(=O)N[C@@H](CCC(=O)O)C(=O)O)cc1)Cc1cnc2nc(N)nc(N)c2n1" only.
[out] 29

###

Reported IC50 values follow for various compounds
Assay: Inhibition of pigeon liver dihydrofolate reductase
Design: species or system Columba livia
Conditions: read-out: I50
Value expressed in nM; do not type the unit.

Some entries whose results are on file:
[in] Answer with the recorded IC50 of "Nc1nc(N)c2nc(CNc3ccc(C(=O)NCC(=O)O)cc3)cnc2n1" only.
[out] 1100

[in] Answer with the recorded IC50 of CN(Cc1cnc2nc(N)nc(N)c2n1)c1ccc(C(=O)N[C@@H](CCC(=O)O)C(=O)O)cc1 [METHOTREXATE] only.
[out] 26

[in] Answer with the recorded IC50 of "Nc1nc(N)c2nc(CNc3ccc(CCC(=O)N[C@@H](CCC(=O)O)C(=O)O)cc3)cnc2n1" only.
[out] 460

Next:
[in] Answer with the recorded IC50 of "Nc1nc(N)c2nc(CNc3ccc(C(=O)NCCCC(=O)O)cc3)cnc2n1" only.
[out] 380

[in] Answer with the recorded IC50 of "Nc1nc(N)c2nc(CNc3ccc(CC(=O)N[C@@H](CC(=O)O)C(=O)O)cc3)cnc2n1" only.
[out] 1000

[in] Answer with the recorded IC50 of "CN(CCCCC(=O)N[C@@H](CCC(=O)O)C(=O)O)Cc1cnc2nc(N)nc(N)c2n1" only.
[out] 20000

[in] Answer with the recorded IC50 of "Nc1nc(N)c2nc(CN(Cc3ccccc3)c3ccc(C(=O)N[C@@H](CCC(=O)O)C(=O)O)cc3)cnc2n1" only.
[out] 14000

[in] Answer with the recorded IC50 of Nc1nc(N)c2nc(CNc3ccc(C(=O)NC(CCCCC(=O)O)C(=O)O)cc3)cnc2n1 (centres undefined) only.
[out] 13

[in] Answer with the recorded IC50 of "Nc1nc(N)c2nc(CNc3ccc(S(=O)(=O)N[C@@H](CCC(=O)O)C(=O)O)cc3)cnc2n1" only.
[out] 1100

###

Tested on: Columba livia
Experiment: Potency index, ratio of I50 for MTX to I50 for compound against pigeon liver dihydrofolate reductase
Please note: satisfied applies when Ratio is 20 or greater, and not satisfied applies otherwise.

Solved cases (3 shown):
[in] Quick check, Ratio >= 20? "Nc1nc(N)c2nc(CNc3ccc(S(=O)(=O)N[C@@H](CCC(=O)O)C(=O)O)cc3)cnc2n1"
[out] satisfied

[in] Quick check, Ratio >= 20? "CCN(Cc1cnc2nc(N)nc(N)c2n1)c1c(Cl)cc(C(=O)N[C@@H](CCC(=O)O)C(=O)O)cc1Cl"
[out] not satisfied

[in] Quick check, Ratio >= 20? "Nc1nc(N)c2nc(CNc3ccc(C(=O)NCCCC(=O)O)cc3)cnc2n1"
[out] not satisfied

# next compound below
[in] Quick check, Ratio >= 20? "Nc1nc(N)c2nc(CNc3ccc(C(=O)NCC(=O)O)cc3)cnc2n1"
[out] satisfied
